Where do these numbers come from? They come from patent US11667602B2.

Recorded Test A Sinf for the following compounds
Target: human RXFP1 (Homo sapiens)
Sequence (Q9HBX9 1-757): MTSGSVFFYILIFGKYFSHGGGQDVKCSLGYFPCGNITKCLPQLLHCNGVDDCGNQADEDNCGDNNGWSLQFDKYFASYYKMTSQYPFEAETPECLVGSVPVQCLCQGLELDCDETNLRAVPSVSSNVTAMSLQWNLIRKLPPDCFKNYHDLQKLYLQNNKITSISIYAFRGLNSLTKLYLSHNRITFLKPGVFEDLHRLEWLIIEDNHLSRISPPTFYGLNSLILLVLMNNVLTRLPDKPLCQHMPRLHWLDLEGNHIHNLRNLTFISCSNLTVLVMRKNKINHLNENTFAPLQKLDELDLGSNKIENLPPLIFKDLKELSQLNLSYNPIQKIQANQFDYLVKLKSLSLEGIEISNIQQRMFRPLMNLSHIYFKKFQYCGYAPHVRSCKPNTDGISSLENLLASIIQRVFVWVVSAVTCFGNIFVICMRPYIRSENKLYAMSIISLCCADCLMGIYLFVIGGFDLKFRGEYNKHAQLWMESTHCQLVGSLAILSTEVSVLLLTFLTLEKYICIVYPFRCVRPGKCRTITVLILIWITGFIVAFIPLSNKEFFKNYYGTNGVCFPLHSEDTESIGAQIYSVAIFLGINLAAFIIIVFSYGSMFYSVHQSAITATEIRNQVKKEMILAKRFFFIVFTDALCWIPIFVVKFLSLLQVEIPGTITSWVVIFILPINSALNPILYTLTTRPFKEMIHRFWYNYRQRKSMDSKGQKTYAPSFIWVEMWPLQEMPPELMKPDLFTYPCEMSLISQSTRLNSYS
Test: RXFP1 Hu cAMP (Test A)
Format: cell-based
Parameters: expressed in transfected cells; host or cells: Jump-In T-REx CHO-K1 cells (ThermoFisher), induced with 10 ng/ml doxycycline for 24 h
Details: RXFP1 Hu cAMP

compound	testedSystem	Test A Sinf [%]
COc1cc(F)c(O[C@H]2CC[C@@](C)(C(=O)O)CC2)cc1C(=O)N[C@@H]1[C@H]2CC[C@H](C2)[C@@H]1C(=O)NCC1(OC)CCC1	human RXFP1 (Homo sapiens)	118
COc1cc(F)c(O[C@H]2CC[C@@H](C(=O)O)CC2)cc1C(=O)N[C@@H]1[C@H]2CC[C@H](C2)[C@@H]1C(=O)Nc1ccc(S(F)(F)(F)(F)F)cc1	human RXFP1 (Homo sapiens)	99
COc1cc(C#N)c(O[C@H]2CC[C@@](C)(C(=O)O)CC2)cc1C(=O)N[C@@H]1CCCC[C@@H]1C(=O)NCC1(C)CCC1	human RXFP1 (Homo sapiens)	91
COc1cc(F)c(-c2ccc(C(=O)O)cc2)cc1C(=O)N[C@@H]1CC[C@@H]1C(=O)Nc1cccc(S(=O)(=O)C(F)(F)F)c1 (racemic)	human RXFP1 (Homo sapiens)	69
COc1cc(F)c(O[C@H]2CC[C@@](C)(C(=O)O)CC2)cc1C(=O)N[C@@H]1[C@H]2CC[C@H](C2)[C@@H]1C(=O)NC1CC(F)(F)C1	human RXFP1 (Homo sapiens)	103
CCC(C)(C)NC(=O)[C@H]1[C@@H]2CC[C@@H](C2)[C@H]1NC(=O)c1cc(O[C@H]2CC[C@@](C)(C(=O)O)CC2)c(C#N)cc1OC	human RXFP1 (Homo sapiens)	98
COC(=O)[C@]1(C(=O)O)CC[C@@H](Oc2cc(C(=O)N[C@@H]3[C@H]4CC[C@H](C4)[C@@H]3C(=O)NCC3(C)CCC3)c(OC(C)C)cc2F)CC1	human RXFP1 (Homo sapiens)	95
COc1cc(F)c(-c2cccc(C(=O)O)c2F)cc1C(=O)N[C@H]1[C@@H](C(=O)Nc2cccc(S(=O)(=O)C(F)(F)F)c2)[C@@H]2C=C[C@H]1C2 (racemic)	human RXFP1 (Homo sapiens)	105
COc1cc(F)c(O[C@H]2CC[C@@](C)(C(=O)O)CC2)cc1C(=O)N[C@@H]1CCC[C@@H]1C(=O)NCC1(CF)CC1	human RXFP1 (Homo sapiens)	105
COc1cc(F)c(-c2cnc(NCC(=O)O)nc2)cc1C(=O)N[C@@H]1[C@H]2CC[C@H](C2)[C@@H]1C(=O)Nc1cccc(S(=O)(=O)C(F)(F)F)c1	human RXFP1 (Homo sapiens)	97
CCC(CC)CNC(=O)c1ccc(C)cc1NC(=O)c1cc(O[C@H]2CC[C@@](C)(C(=O)O)CC2)c(C#N)cc1OC	human RXFP1 (Homo sapiens)	147
COc1cc(F)c(O[C@H]2CC[C@@](C)(C(=O)O)CC2)cc1C(=O)NC1CCC1C(=O)Nc1ccc(F)c(S(F)(F)(F)(F)F)c1 (single isomer, unassigned)	human RXFP1 (Homo sapiens)	128
COc1cc(F)c(-c2ccc(CCC(=O)O)nc2)cc1C(=O)N[C@@H]1[C@H]2CC[C@H](C2)[C@@H]1C(=O)Nc1cccc(S(=O)(=O)C(F)(F)F)c1	human RXFP1 (Homo sapiens)	106
COc1cc(-c2cc(C(=O)N[C@@H]3[C@H]4CC[C@H](C4)[C@@H]3C(=O)Nc3cccc(S(=O)(=O)C(F)(F)F)c3)c(OC)cc2F)ccc1CCC(=O)O	human RXFP1 (Homo sapiens)	97
COc1cc(C#N)c(O[C@H]2CC[C@@](C)(C(=O)O)CC2)cc1C(=O)N[C@@H]1[C@H]2CC[C@H](C2)[C@@H]1C(=O)NCC(C)(C)O	human RXFP1 (Homo sapiens)	100
COc1cc(F)c(O[C@H]2C[C@@H](C(=O)O)C2)cc1C(=O)NC1[C@H]2CC[C@H](C2)[C@@H]1C(=O)Nc1cccc(S(=O)(=O)C(F)(F)F)c1 (stereo partly shown)	human RXFP1 (Homo sapiens)	117
COc1cc(C#N)c(O[C@H]2CC[C@@](C)(C(=O)O)CC2)cc1C(=O)N[C@@H]1[C@H]2CC[C@H](C2)[C@@H]1C(=O)NCC1CC(C)(C)C1	human RXFP1 (Homo sapiens)	109
COc1cc(C#N)c(-c2ccc(OCC(=O)O)cc2)cc1C(=O)N[C@@H]1[C@H]2CC[C@H](C2)[C@@H]1C(=O)Nc1cccc(S(=O)(=O)C(F)(F)F)c1	human RXFP1 (Homo sapiens)	108
COc1cc(C#N)c(O[C@H]2CC[C@@](C)(C(=O)O)CC2)cc1C(=O)N[C@@H]1[C@H]2CC[C@H](C2)[C@@H]1C(=O)NCC1(C#N)CCC1	human RXFP1 (Homo sapiens)	103
COc1cc(F)c(O[C@H]2CC[C@@H](C(=O)O)CC2)cc1C(=O)N[C@H]1[C@H]2CC[C@H](C2)[C@H]1C(=O)Nc1cccc(S(F)(F)(F)(F)F)c1	human RXFP1 (Homo sapiens)	63
COc1cc(F)c(O[C@H]2CC[C@@H](NS(C)(=O)=O)CC2)cc1C(=O)N[C@@H]1[C@H]2CC[C@H](C2)[C@@H]1C(=O)Nc1cccc(S(=O)(=O)C(F)(F)F)c1	human RXFP1 (Homo sapiens)	91
COc1cc(F)c(O[C@H]2CC[C@@](C)(C(=O)O)CC2)cc1C(=O)N[C@@H]1[C@H]2CC[C@H](C2)[C@@H]1C(=O)N[C@H](C)C(C)C	human RXFP1 (Homo sapiens)	104

* * *

test: Human Plasma Protein Binding (Test B); format: in vitro ADME; conditions: fraction unbound (fu)
measuredEndpoint: Test B Human Plasma Protein Binding (% free)

molecule	endpointResult
COc1cc(F)c(O[C@H]2CC[C@@H](C(=O)O)CC2)cc1C(=O)N[C@@H]1[C@H]2CC[C@H](C2)[C@@H]1C(=O)Nc1c(F)c(F)c(F)c(F)c1F [Example 16]	2.2 % free
COc1cc(F)c(-c2ccc(C(=O)O)cc2)cc1C(=O)N[C@@H]1[C@H]2CC[C@H](C2)[C@@H]1C(=O)Nc1ccc(S(F)(F)(F)(F)F)cc1 [Example 210]	0.049 % free
COc1cc(F)c(O[C@H]2CC[C@@H](C(=O)O)CC2)cc1C(=O)N[C@@H]1[C@H]2CC[C@H](C2)[C@@H]1C(=O)Nc1ccc(C)c(C#N)c1 [Example 19]	2.3 % free
Cc1cc(F)c(O[C@H]2CC[C@@](C)(C(=O)O)CC2)cc1C(=O)N[C@@H]1[C@H]2CC[C@H](C2)[C@@H]1C(=O)NCC1(C)CCC1 [Example 5]	2.4 % free
COc1cc(C#N)c(O[C@H]2CC[C@@H](C(=O)O)CC2)cc1C(=O)N[C@@H]1[C@H]2CC[C@H](C2)[C@@H]1C(=O)Nc1cccc(S(=O)(=O)C(F)(F)F)c1 [Example 467]	3.7 % free
COc1cc(F)c(O[C@H]2CC[C@@H](C(=O)O)CC2)cc1C(=O)N[C@@H]1[C@H]2CC[C@H](C2)[C@@H]1C(=O)NCCC1CC1 [Example 176]	9.3 % free
COc1cc(F)c(O[C@H]2CC[C@@](C)(C(=O)O)CC2)cc1C(=O)N[C@@H]1[C@H]2CC[C@H](C2)[C@@H]1C(=O)Nc1cccc(S(=O)(=O)C(F)(F)F)c1 [Example 208]	1 % free
COc1cc(F)c(O[C@H]2CC[C@@H](C(=O)O)CC2)cc1C(=O)N[C@@H]1[C@H]2CC[C@H](C2)[C@@H]1C(=O)Nc1cc(Cl)cnn1 [Example 30]	3.6 % free
COc1cc(C#N)c(O[C@H]2CC[C@@](C)(C(=O)O)CC2)cc1C(=O)N[C@@H]1[C@H]2CC[C@H](C2)[C@@H]1C(=O)NCC1(O)CCCCCC1 [Example 103]	10 % free
COc1cc(F)c(-c2ccc(C(=O)O)cc2)cc1C(=O)Nc1ccccc1C(=O)Nc1cccc(S(=O)(=O)C(F)(F)F)c1 [Example 328]	<0.10 % free
CCC(CC)CNC(=O)[C@H]1CCC[C@H]1NC(=O)c1cc(O[C@H]2CC[C@@](C)(C(=O)O)CC2)c(F)cc1OC [Example 59]	2.4 % free
O=C(N[C@@H]1[C@H]2CC[C@H](C2)[C@@H]1C(=O)Nc1cccc(S(=O)(=O)C(F)(F)F)c1)c1cc(O[C@H]2CC[C@@H](C(=O)O)CC2)c(F)cc1F [Example 430]	3 % free
COc1cc(C#N)c(O[C@H]2CC[C@@](C)(C(=O)O)CC2)cc1C(=O)N[C@@H]1[C@H]2CC[C@H](C2)[C@@H]1C(=O)NC1(C#N)CC1 [Example 72]	40 % free
COc1cc(C#N)c(O[C@H]2CC[C@@](C)(C(=O)O)CC2)cc1C(=O)N[C@@H]1[C@H]2CC[C@H](C2)[C@@H]1C(=O)NC(C)(C)C [Example 99]	20 % free
CCC(CC)CNC(=O)[C@H]1[C@@H]2CC[C@@H](C2)[C@H]1NC(=O)c1cc(O[C@H]2CC[C@@](C)(C(=O)O)CC2)c(C#N)cc1OC [Example 88]	4.4 % free
COc1cc(C#N)c(O[C@H]2CC[C@@](C)(C(=O)O)CC2)cc1C(=O)N[C@@H]1[C@H]2CC[C@H](C2)[C@@H]1C(=O)NCC1(O)CCC(F)(F)CC1 [Example 101]	20 % free
COc1cc(F)c(O[C@H]2CC[C@@](C)(C(=O)O)CC2)cc1C(=O)N[C@H]1[C@@H](C(=O)NCC2(C)CCC2)[C@@H]2C=C[C@H]1C2 [Example 417]	4.8 % free
COc1cc(F)c(O[C@H]2CC[C@@H](C(=O)O)CC2)cc1C(=O)N[C@H]1[C@@H](C(=O)Nc2ccc(OC)c(S(=O)(=O)C(F)(F)F)c2)[C@@H]2C=C[C@H]1C2 [Example 497]	3.3 % free
COc1cc(F)c(O[C@H]2CC[C@@H](C(=O)O)CC2)cc1C(=O)N[C@@H]1[C@H]2CC[C@H](C2)[C@@H]1C(=O)Nc1ccc(S(=O)(=O)C(F)(F)F)cc1 [Example 15]	1.3 % free
COc1cc(F)c(O[C@H]2CC[C@@H](C(=O)O)CC2)cc1C(=O)N[C@@H]1[C@H]2CC[C@H](C2)[C@@H]1C(=O)Nc1cccc(OC(F)(F)F)c1 [Example 20]	0.74 % free
COCC1(CNC(=O)[C@H]2[C@@H]3CC[C@@H](C3)[C@H]2NC(=O)c2cc(O[C@H]3CC[C@@](C)(C(=O)O)CC3)c(C#N)cc2OC)CC1 [Example 79]	28 % free
COc1cc(F)c(O[C@H]2CC[C@@](C)(C(=O)O)CC2)cc1C(=O)N[C@@H]1COC[C@@H]1C(=O)Nc1ccc(F)c(C(F)(F)F)c1 [Example 52]	0.94 % free
